Assay Target: UniProt P41143
Sequence (P41143 whole entry): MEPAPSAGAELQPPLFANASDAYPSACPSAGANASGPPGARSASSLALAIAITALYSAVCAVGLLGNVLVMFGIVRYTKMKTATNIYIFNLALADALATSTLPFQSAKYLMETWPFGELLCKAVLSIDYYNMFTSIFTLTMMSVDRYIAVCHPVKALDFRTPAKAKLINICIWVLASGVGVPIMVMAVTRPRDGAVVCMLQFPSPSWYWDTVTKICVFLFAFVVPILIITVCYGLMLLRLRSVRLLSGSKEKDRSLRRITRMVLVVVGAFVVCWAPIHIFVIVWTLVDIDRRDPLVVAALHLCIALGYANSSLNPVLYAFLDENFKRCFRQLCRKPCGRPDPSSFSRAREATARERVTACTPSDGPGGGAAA
Measured Endpoint: IC50 (nM)
One number for each entry, in nM.

Observed IC50 on UniProt P41143 for CO[C@@]12[C@@H](C)CC(=O)C[C@@]13CCN(CC1CC1)[C@@H]2Cc1ccc(O)cc13.Cl [CHMMO, hydrochloride] , please.
0.8

* * *

Assay Target: μ opioid receptor (Homo sapiens, UniProt P35372)
Sequence (P35372 whole entry): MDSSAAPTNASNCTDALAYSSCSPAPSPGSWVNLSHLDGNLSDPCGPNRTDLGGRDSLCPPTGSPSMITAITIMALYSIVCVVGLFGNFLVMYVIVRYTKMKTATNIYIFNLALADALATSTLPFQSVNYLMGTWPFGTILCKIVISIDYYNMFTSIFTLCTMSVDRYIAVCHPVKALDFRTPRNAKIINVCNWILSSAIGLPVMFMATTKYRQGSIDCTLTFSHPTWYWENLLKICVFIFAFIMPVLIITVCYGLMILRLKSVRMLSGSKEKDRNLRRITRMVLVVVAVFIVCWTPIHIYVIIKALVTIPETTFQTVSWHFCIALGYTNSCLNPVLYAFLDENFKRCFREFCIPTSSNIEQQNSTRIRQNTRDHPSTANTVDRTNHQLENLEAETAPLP
Measured Endpoint: pIC50
Numbers only, as −log10 of the molar value.

Param item = CO[C@@]12[C@@H](C)CC(=O)C[C@@]13CCN(CC1CC1)[C@@H]2Cc1ccc(O)cc13.Cl [CHMMO, hydrochloride] ; retrieve measured pIC50.
9.30

* * *

Assay Target: κ opioid receptor (Homo sapiens)
Sequence (P41145 whole entry): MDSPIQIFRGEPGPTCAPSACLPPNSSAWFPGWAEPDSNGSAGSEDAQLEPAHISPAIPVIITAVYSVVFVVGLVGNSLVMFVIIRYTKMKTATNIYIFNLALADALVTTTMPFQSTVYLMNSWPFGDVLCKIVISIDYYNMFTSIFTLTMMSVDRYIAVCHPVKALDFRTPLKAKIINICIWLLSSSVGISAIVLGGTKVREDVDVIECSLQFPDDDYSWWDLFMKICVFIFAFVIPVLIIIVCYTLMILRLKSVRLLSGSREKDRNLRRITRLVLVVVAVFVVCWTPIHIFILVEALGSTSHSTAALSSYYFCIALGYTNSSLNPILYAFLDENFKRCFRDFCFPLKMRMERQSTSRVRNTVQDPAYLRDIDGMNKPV
Measurement Protocol: biochemical
Type: binding
Assay Context: prototype ligand EKC
Text: For each receptor there is a prototype ligand. […] For the μ receptor the prototype ligand is DHM (dihydromorphine). For the δ receptor, the prototype ligand is DADLE (D-Ala+D-Leu-Enkephalin), and for the κ receptor, the prototype ligand is EKC (ethylketocyclazocine).
Measured Endpoint: pIC50
Answers are plain numbers, as −log10 of the molar value.

Please provide the recorded pIC50 for CO[C@@]12[C@@H](C)CC(=O)C[C@@]13CCN(CC1CC1)[C@@H]2Cc1ccc(O)cc13.Cl [CHMMO, hydrochloride] , tested on κ opioid receptor (Homo sapiens).
9.02

These data points were gathered from patent US6026817A.
